Target: T1, MPP2, Q14168
T1 sequence (Q14168 180-250, limits assumed, looked up): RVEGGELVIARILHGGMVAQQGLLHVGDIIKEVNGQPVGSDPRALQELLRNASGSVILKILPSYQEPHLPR
Assay: holdup assay
Parameters: key: below the threshold = too weak to quantify, mostly under pKd 3.1 to 4
Settings: plain residues with an end cap or a label only (N-terminal biotin on a linker: ado-ado)
Reported Endpoint: pKd

| Binder | Reported Endpoint | Assay Result |
| --- | --- | --- |
| DDASLPVSDV [PLEKHA1, Q9HB21] | pKd | below the threshold |
| SFISKKEWYV [NECTIN1, Q15223] | pKd | 4.46 |
| DFLSTFHIRI [CIB2, O75838] | pKd | below the threshold |
| KKMLQRRTLL [OR8G1, Q15617] | pKd | below the threshold |
